target: human GABAA α5β2γ1 receptor (Homo sapiens (Human), UniProt P31644+Q8N1C3); assay: Radioligand binding assay for γ1-containing GABAA subtypes, [3H]RO7239181 competition (α5β2γ1)
Reported Ki by item:
Readout Type: Ki

# Compound, Result
records = [
    ("C[C@@H]1N=C(c2ncccc2F)c2c(ccc(C(F)(F)F)c2Cl)-n2nc(C(=O)N3CC4(CCOC4)C3)nc21 [Example 120]", "8.55 nM"),
    ("C[C@@H]1N=C(c2ncccc2F)c2c(ccc(Cl)c2Cl)-n2nc(C(=O)N3CC4(CCCCO4)C3)nc21 [Example 101]", "14.4 nM"),
    ("CNC(=O)Nc1nc2n(n1)-c1ccc(C(F)(F)F)c(Cl)c1C(c1c(F)cccc1F)=N[C@H]2C [Example 129]", "1.58 nM"),
    ("C[C@@H]1N=C(c2ncccc2F)c2c(ccc(C(F)(F)F)c2Cl)-n2nc(C(=O)N3CCC3)nc21 [Example 85]", "8.51 nM"),
]

###

target: human GABAA α1β2γ1 receptor (Homo sapiens (Human), UniProt P14867+Q8N1C3); test: Radioligand binding assay for γ1-containing GABAA subtypes, [3H]RO7239181 competition (α1β2γ1)
pKi: −log10 of the molar value.
Reported pKi by item:

# Molecule, pKi
data = [
    ("C[C@@H]1N=C(c2c(F)cccc2F)c2c(ccc(C(F)(F)F)c2Cl)-n2nc(C(=O)N3CCC3)nc21 [Example 26]", 7.42),
    ("C[C@@H]1N=C(c2c(F)cccc2F)c2c(ccc(Cl)c2Cl)-n2nc(C(=O)N3CCS(=O)(=O)CC3)nc21 [Example 36]", 8.08),
    ("C[C@@H]1N=C(c2ncccc2F)c2c(ccc(C(F)(F)F)c2Cl)-n2cc(C(=O)NCC(C)(C)O)nc21 [Example 159]", 7.15),
    ("C[C@H](O)CNC(=O)c1nc2n(n1)-c1ccc(C(F)(F)F)c(Cl)c1C(c1c(F)cccc1F)=N[C@H]2C [Example 109]", 7.39),
    ("Cc1nc2n(n1)-c1ccc(Cl)c(Cl)c1C(c1c(F)cccc1F)=N[C@H]2C [Example 21]", 8.08),
    ("COC1CN(C(=O)c2nc3n(n2)-c2ccc(C(F)(F)F)c(Cl)c2C(c2c(F)cccc2F)=N[C@H]3C)C1 [Example 23]", 7.54),
    ("CNC(=O)Nc1nc2n(n1)-c1ccc(C(F)(F)F)c(Cl)c1C(c1c(F)cccc1F)=N[C@H]2C [Example 129]", 7.30),
]

###

target: human GABAA α2β2γ1 receptor (Homo sapiens (Human), UniProt P47869+Q8N1C3); test: Radioligand binding assay for γ1-containing GABAA subtypes, [3H]RO7239181 competition (α2β2γ1); conditions: Ki h-GABAA α2β2γ1, displacement of [3H]RO7239181, membranes of HEK293F cells expressing human receptors, means of two determinations
Reported Ki by item:
Readout Type: Ki

# Molecule, Target Or System, Result
data = [
    ("C[C@@H]1N=C(c2ncccc2F)c2c(ccc(C(F)(F)F)c2Cl)-n2cc(C(=O)NCC(C)(C)O)nc21 [Example 159]", "human GABAA α2β2γ1 receptor (Homo sapiens (Human), UniProt P47869+Q8N1C3)", "42.6 nM"),
    ("CCOC1CN(C(=O)c2nc3n(n2)-c2ccc(C(F)(F)F)c(Cl)c2C(c2ncccc2F)=N[C@H]3C)C1 [Example 137]", "human GABAA α2β2γ1 receptor (Homo sapiens (Human), UniProt P47869+Q8N1C3)", "42.6 nM"),
    ("C[C@@H]1N=C(c2c(F)cccc2F)c2c(ccc(C(F)(F)F)c2Cl)-n2nc(NC(=O)NC3COC3)nc21 [Example 125]", "human GABAA α2β2γ1 receptor (Homo sapiens (Human), UniProt P47869+Q8N1C3)", "6.19 nM"),
    ("C[C@@H]1N=C(c2ncccc2F)c2c(ccc(Cl)c2Cl)-n2nc(C(=O)N3CC[C@H](F)C3)nc21 [Example 79]", "human GABAA α2β2γ1 receptor (Homo sapiens (Human), UniProt P47869+Q8N1C3)", "48.4 nM"),
    ("C[C@@H]1N=C(c2c(F)cccc2F)c2c(ccc(Cl)c2Cl)-n2nc(C(=O)N3CCC3)nc21 [Example 14]", "human GABAA α2β2γ1 receptor (Homo sapiens (Human), UniProt P47869+Q8N1C3)", "7.1 nM"),
    ("C[C@@H]1N=C(c2c(F)cccc2F)c2c(ccc(C(F)(F)F)c2Cl)-n2nc(C(=O)N3CC(O)C3)nc21 [Example 58]", "human GABAA α2β2γ1 receptor (Homo sapiens (Human), UniProt P47869+Q8N1C3)", "7 nM"),
    ("C[C@@H]1N=C(c2ncccc2F)c2c(ccc(Cl)c2Cl)-n2nc(C(=O)N3CC(O)C3)nc21 [Example 44]", "human GABAA α2β2γ1 receptor (Homo sapiens (Human), UniProt P47869+Q8N1C3)", "25.9 nM"),
    ("CNC(=O)Nc1nc2n(n1)-c1ccc(C(F)(F)F)c(Cl)c1C(c1c(F)cccc1F)=N[C@H]2C [Example 129]", "human GABAA α2β2γ1 receptor (Homo sapiens (Human), UniProt P47869+Q8N1C3)", "6 nM"),
    ("Fc1cccc(F)c1C1=NCc2nc(C(F)F)nn2-c2ccc(Cl)c(Cl)c21 [Example 33]", "human GABAA α2β2γ1 receptor (Homo sapiens (Human), UniProt P47869+Q8N1C3)", "10.8 nM"),
    ("CC(=O)NCc1nc2n(n1)-c1ccc(Cl)c(Cl)c1C(c1c(F)cccc1F)=N[C@H]2C [Example 67]", "human GABAA α2β2γ1 receptor (Homo sapiens (Human), UniProt P47869+Q8N1C3)", "5.2 nM"),
    ("CC1CN(C(=O)c2nc3n(n2)-c2ccc(C(F)(F)F)c(Cl)c2C(c2ncccc2F)=N[C@H]3C)C1 [Example 135]", "human GABAA α2β2γ1 receptor (Homo sapiens (Human), UniProt P47869+Q8N1C3)", "50.6 nM"),
    ("COC1CN(C(=O)c2nc3n(n2)-c2ccc(Cl)c(Cl)c2C(c2ncccc2F)=NC3)C1 [Example 62]", "human GABAA α2β2γ1 receptor (Homo sapiens (Human), UniProt P47869+Q8N1C3)", "9 nM"),
    ("Cc1nc2n(n1)-c1ccc(C(F)(F)F)c(Cl)c1C(c1c(F)cccc1F)=N[C@H]2C [Example 29]", "human GABAA α2β2γ1 receptor (Homo sapiens (Human), UniProt P47869+Q8N1C3)", "10 nM"),
    ("C[C@@H]1N=C(c2ncccc2F)c2c(ccc(C(F)(F)F)c2Cl)-n2cc(C(=O)NCC3(O)CC3)nc21 [Example 164]", "human GABAA α2β2γ1 receptor (Homo sapiens (Human), UniProt P47869+Q8N1C3)", "33.7 nM"),
    ("C[C@@H]1N=C(c2c(F)cccc2F)c2c(ccc(Cl)c2Cl)-n2nc(S(C)(=O)=O)nc21 [Example 82]", "human GABAA α2β2γ1 receptor (Homo sapiens (Human), UniProt P47869+Q8N1C3)", "19.8 nM"),
]
